What follows is literature data on IC50 for Poly [ADP-ribose] polymerase tankyrase-1 (Homo sapiens).

molecule	reported relation	IC50 (nM)
O=C(N[C@H]1CC[C@@]2(CCN(c3ccc(F)cc3Cl)C2=O)CC1)c1cnn2ccc(N3CCCC3)nc12	=	8.5
CC(c1nc2c(c(=O)[nH]1)COCC2)N(C)C(=O)CN1CCC(C(=O)c2ccc(F)cc2)CC1 (centres unmarked)	=	4100
CCn1ccc2c(=O)[nH]c(N3CCN(c4ccccc4F)CC3)cc21	=	273
Cn1ccc2c(=O)[nH]c(N3CCN(c4cccc(F)c4)CC3)nc21	=	59
CCOc1ccc(-c2n[nH]cc2C2NC(=O)c3ccccc3N2C)cc1 (centres unmarked)	<	5
O=C(NC1CC1)c1nc[nH]c1C(=O)N[C@H]1CC[C@@]2(CCN(c3cccc(Cl)c3)C2=O)CC1	=	290
COc1ccc(C(=O)C2CCN(CC(=O)NCc3nc4c(c(=O)[nH]3)COCC4)CC2)cc1C	=	33
